# credit: ChEMBL document CHEMBL3124785

# Assay summary: Apparent permeability in MDCK cells
# Assay type: ADME, cell-based, Canis lupus familiaris
# Details: dog
Measured attribute: Papp (×10⁻⁶ cm/s)
The response must be a number in ×10⁻⁶ cm/s with no trailing unit.

What does the data say about its Papp? Entry: O=C(O)c1csc(-n2nc(-c3ccccc3)c3ccc(C(F)(F)F)cc32)n1
17.8

* * *

# Assay summary: Cmax in rat at 10 mg/kg, po
# Format: ADME, organism-based
# Parameters: dose 10 mg/kg, route oral
# Details: in vivo
Measured attribute: Cmax (µM)
The response must be a number in µM with no trailing unit.

What does the data say about its Cmax? Entry: O=C(O)c1csc(-n2nc(-c3ccccc3)c3ccc(C(F)(F)F)cc32)n1
5.34

* * *

# Assay summary: Solubility of the compound at pH 6.8
# Format: physicochemical
# Details: buffer
Measured attribute: solubility

What does the data say about its solubility? Entry: O=C(O)c1csc(-n2nc(-c3ccccc3)c3ccc(C(F)(F)F)cc32)n1
123 µg/mL
